- system: human TRPM8 (Homo sapiens, UniProt Q7Z2W7)
- Sequence (Q7Z2W7 whole entry): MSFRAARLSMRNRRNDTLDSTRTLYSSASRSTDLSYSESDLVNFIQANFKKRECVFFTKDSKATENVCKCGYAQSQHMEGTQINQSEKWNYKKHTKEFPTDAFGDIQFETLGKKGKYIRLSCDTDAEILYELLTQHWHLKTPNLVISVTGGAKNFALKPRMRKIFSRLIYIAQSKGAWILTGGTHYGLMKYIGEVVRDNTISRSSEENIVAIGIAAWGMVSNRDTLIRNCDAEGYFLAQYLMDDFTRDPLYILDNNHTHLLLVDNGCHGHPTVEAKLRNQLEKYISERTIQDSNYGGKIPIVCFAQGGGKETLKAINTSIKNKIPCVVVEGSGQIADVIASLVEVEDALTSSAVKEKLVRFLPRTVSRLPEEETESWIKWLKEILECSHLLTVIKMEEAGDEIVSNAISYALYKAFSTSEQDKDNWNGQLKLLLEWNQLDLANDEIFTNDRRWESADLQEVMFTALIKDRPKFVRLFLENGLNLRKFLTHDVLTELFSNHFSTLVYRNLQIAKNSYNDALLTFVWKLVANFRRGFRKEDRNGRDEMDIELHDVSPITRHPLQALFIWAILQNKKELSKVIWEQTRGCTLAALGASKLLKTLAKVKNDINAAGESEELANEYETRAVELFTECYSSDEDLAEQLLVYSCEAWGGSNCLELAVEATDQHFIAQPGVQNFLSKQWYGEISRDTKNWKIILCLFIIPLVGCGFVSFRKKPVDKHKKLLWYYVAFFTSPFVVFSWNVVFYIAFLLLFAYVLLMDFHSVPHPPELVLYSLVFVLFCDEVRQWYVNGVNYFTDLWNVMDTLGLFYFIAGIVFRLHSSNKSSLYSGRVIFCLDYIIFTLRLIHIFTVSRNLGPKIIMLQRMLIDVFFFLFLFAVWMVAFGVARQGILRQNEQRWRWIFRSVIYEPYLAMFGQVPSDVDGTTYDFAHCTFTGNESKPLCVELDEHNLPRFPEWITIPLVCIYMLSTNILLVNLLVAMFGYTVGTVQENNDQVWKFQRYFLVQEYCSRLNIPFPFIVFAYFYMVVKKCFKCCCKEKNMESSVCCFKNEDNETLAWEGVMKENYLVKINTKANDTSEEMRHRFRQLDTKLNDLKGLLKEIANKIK
- protocol_text: Menthol-induced Ca2+ influx in HEK293 cells stably expressing human TRPM8
- condition: 30 microM menthol-induced Ca2+ influx, read-out: IC50 against TRPM8
Can you tell me IC50 for the items I'm about to list?

Q) Using the record for O=C(CN1C(=O)NC2(CCC(F)(F)CC2)C1=O)c1ccc(-c2ncnc3[nH]ncc23)cc1 , report its IC50.
A) < 100 nM

Q) Using the record for O=C(CN1C(=O)NC2(CCC(F)(F)CC2)C1=O)c1ccc(-c2cccc3cnccc23)c(F)c1 , report its IC50.
A) < 100 nM

Q) Using the record for Cc1c(C(=O)CN2C(=O)NC3(CCC(F)(F)CC3)C2=O)cn(C)c1-c1ccccc1CO , report its IC50.
A) < 500 nM

Q) Using the record for O=C(CN1C(=O)NC2(CCC(F)(F)CC2)C1=O)c1ccc(-c2ncc3ccccn23)cc1 , report its IC50.
A) < 100 nM

====

- system: human TRPM8 (Homo sapiens)
- protocol_text: Menthol-induced Ca2+ influx in HEK293 cells stably expressing human TRPM8
- condition: 30 microM menthol-induced Ca2+ influx, read-out: IC50 against TRPM8
pIC50: −log10 of the molar value.
Can you tell me pIC50 for the items I'm about to list?

Q) Using the record for N#Cc1ccccc1-c1ccc(C(=O)CN2C(=O)NC3(CCCCC3)C2=O)cn1 [Example 9-8] , report its pIC50.
A) > 7.00

Q) Using the record for O=C(CN1C(=O)NC2(CCCCC2)C1=O)c1ccc(-c2cccnc2)nc1 [Example 5-2] , report its pIC50.
A) > 7.00

Q) Using the record for Cc1ccncc1-c1c(F)cc(C(=O)CN2C(=O)NC3(CCC(F)(F)CC3)C2=O)cc1F [Example 13-30] , report its pIC50.
A) > 7.00

Q) Using the record for O=C(CN1C(=O)NC2(CCC(F)(F)CC2)C1=O)c1ccc(-c2cnccc2C(F)(F)F)cc1 [Example 6-41] , report its pIC50.
A) > 7.00

Q) Using the record for O=C(CN1C(=O)NC2(CCC(F)(F)CC2)C1=O)c1ccc(-c2cccnc2CO)cc1 [Example 6-9] , report its pIC50.
A) > 7.00

Q) Using the record for Cc1ccncc1-c1ccc(C(=O)CN2C(=O)NC3(CCC(F)(F)CC3)C2=O)cc1Cl [Example 13-23] , report its pIC50.
A) > 7.00

Q) Using the record for NC(=O)c1cccc(-c2ccc(C(=O)CN3C(=O)NC4(CCC(F)(F)CC4)C3=O)cc2)c1 [Example 6-110] , report its pIC50.
A) > 6.30

Q) Using the record for Cc1cc(C(=O)CN2C(=O)NC3(CCC(F)(F)CC3)C2=O)sc1-c1cnccc1CO [Example 14-6] , report its pIC50.
A) > 7.00

Q) Using the record for Cc1cc(-n2c(C)cc(C(=O)CN3C(=O)OC4(CC5CCC4C5)C3=O)c2C)no1 (stereo not shown) [Example 1-4] , report its pIC50.
A) > 6.30

Q) Using the record for Cc1ccc(C#N)c(-c2ccc(C(=O)CN3C(=O)NC4(CCC(F)(F)CC4)C3=O)cc2)n1 [Example 6-92] , report its pIC50.
A) > 7.00

Q) Using the record for Cc1cc(C(=O)CN2C(=O)NC3(CCC(F)(F)CC3)C2=O)sc1-c1ccccc1Cl [Example 14-14] , report its pIC50.
A) > 7.00

Q) Using the record for COc1ccncc1-c1ccc(C(=O)CN2C(=O)NC3(CCC(F)(F)CC3)C2=O)cc1 [Example 13-39] , report its pIC50.
A) > 7.00

Q) Using the record for O=C(CN1C(=O)NC2(CCC(F)(F)CC2)C1=O)c1ccc(-c2ccccc2O)cc1 [Example 6-19] , report its pIC50.
A) > 7.00

Q) Using the record for Cc1cc(-n2c(C)cc(C(=O)CN3C(=O)OC4(CCC(C(F)(F)F)CC4)C3=O)c2C)no1 (stereo not shown) [Example 1-5] , report its pIC50.
A) > 6.30

Q) Using the record for Cc1nc(C(=O)CN2C(=O)NC3(CCC(F)(F)CC3)C2=O)n(C)c1-c1cccc2ccncc12 [Example 17-9] , report its pIC50.
A) > 7.00

Q) Using the record for O=C(CN1C(=O)NC2(CCCCC2)C1=O)c1ccc(-c2ccccc2F)nc1 [Example 9-4] , report its pIC50.
A) > 7.00

Hello, the source for this data is patent US10093678B2, in case you need it.
